# Test system: HuT78
# test.method.notes: Tested for the inhibitory concentration against cell growth of HuT78 T lymphoma using MTT assay
# Assay type: functional
# details: Homo sapiens
// values below are reported TGI
readout: TGI (µM)

>>> val("C/C(=N/N=C(/S)NN)C12CC3CC(CC(C3)C1)C2")
100
>>> val("S=C(N/N=C(/c1ccccn1)C12CC3CC(CC(C3)C1)C2)NNC(=S)c1ccc(Cl)cc1Cl")
81
>>> val("S=C(N/N=C(/c1ccccn1)C12CC3CC(CC(C3)C1)C2)NNC(=S)c1ccc(Cl)cc1")
100
>>> val("N/N=C(\\S)N/N=C(/c1ccccn1)C12CC3CC(CC(C3)C1)C2")
100
>>> val("C/C(=N/N=C(/S)N/N=C(\\S)c1ccc(Cl)cc1)C12CC3CC(CC(C3)C1)C2")
100
>>> val("C/C(=N/N=C(\\N)S)C12CC3CC(CC(C3)C1)C2")
29.1
>>> val("C/C(=N/N=C(/S)N/N=C(\\S)c1ccc(Cl)cc1Cl)C12CC3CC(CC(C3)C1)C2")
100

----------
# Test system: E6SM
# test.method.notes: Tested for cytotoxic activity in human embryonic skin muscle fibroblast (E6SM)
# Format: functional
# details: Muscle tissue
readout: MCC

>>> val("S=C(N/N=C(/c1ccccn1)C12CC3CC(CC(C3)C1)C2)NNC(=S)c1ccc(Cl)cc1Cl")
"80 µg/mL"
>>> val("N/C(S)=N\\N=C(\\c1ccccn1)C12CC3CC(CC(C3)C1)C2")
"> 400 µg/mL"
>>> val("C/C(=N/N=C(/S)N/N=C(\\S)c1ccc(Cl)cc1Cl)C12CC3CC(CC(C3)C1)C2")
"80 µg/mL"
>>> val("C/C(=N/N=C(/S)N/N=C(\\S)c1ccc(Cl)cc1)C12CC3CC(CC(C3)C1)C2")
"200 µg/mL"
>>> val("NC(=O)c1ncn([C@@H]2O[C@H](CO)[C@@H](O)[C@H]2O)n1")
"> 400 µg/mL"
>>> val("N/N=C(\\S)N/N=C(/c1ccccn1)C12CC3CC(CC(C3)C1)C2")
"> 80 µg/mL"
>>> val("O=c1[nH]c(=O)n([C@H]2C[C@H](O)[C@@H](CO)O2)cc1/C=C/Br")
"> 400 µg/mL"
>>> val("S=C(N/N=C(/c1ccccn1)C12CC3CC(CC(C3)C1)C2)NNC(=S)c1ccc(Cl)cc1")
"80 µg/mL"
>>> val("Nc1nc2c(ncn2COCCO)c(=O)[nH]1")
"> 400 µg/mL"
>>> val("C/C(=N/N=C(\\N)S)C12CC3CC(CC(C3)C1)C2")
"> 400 µg/mL"
>>> val("C/C(=N/N=C(/S)NN)C12CC3CC(CC(C3)C1)C2")
"> 80 µg/mL"
>>> val("Nc1nc2c(ncn2COC(CO)CO)c(=O)[nH]1")
"> 100 µg/mL"

----------
# System: MT4
# test.method.notes: Tested for effective concentration required to protect MT-4 cells against the cytopathicity of HIV-2(ROD)
# Type: functional, cell-based
# details: Homo sapiens
readout: EC50

>>> val("C/C(=N/N=C(/S)N/N=C(\\S)c1ccc(Cl)cc1Cl)C12CC3CC(CC(C3)C1)C2")
"> 2 µM"
>>> val("C/C(=N/N=C(\\N)S)C12CC3CC(CC(C3)C1)C2")
"> 8 µM"
>>> val("S=C(N/N=C(/c1ccccn1)C12CC3CC(CC(C3)C1)C2)NNC(=S)c1ccc(Cl)cc1")
"> 3 µM"
>>> val("C/C(=N/N=C(/S)NN)C12CC3CC(CC(C3)C1)C2")
"> 7 µM"
>>> val("N/N=C(\\S)N/N=C(/c1ccccn1)C12CC3CC(CC(C3)C1)C2")
"> 27 µM"
>>> val("S=C(N/N=C(/c1ccccn1)C12CC3CC(CC(C3)C1)C2)NNC(=S)c1ccc(Cl)cc1Cl")
"> 3 µM"
